Recorded measurements of GI50, one per entry
Tested on: NCI-H460
method.description: Antiproliferative activity against human NCI-H460 cells assessed as growth inhibition after 48 hrs by sulforhodamine B assay
Format: functional
protocol.conditions: NCI-H460, 48 h
endpoint: GI50 (nM)

molecule	reported
CNC(=O)c1cc(Oc2ccc3nc(NC(=O)Nc4cc(C(F)(F)F)cc(C(F)(F)F)c4)sc3c2)ccn1	1230
CNC(=O)c1cc(Oc2ccc3nc(NC(=O)c4cc(C(F)(F)F)cc(C(F)(F)F)c4)sc3c2)ccn1	3830
CNC(=O)c1cc(Oc2ccc3nc(NC(=O)Nc4ccc(Cl)c(C(F)(F)F)c4)sc3c2)ccn1	1790
CNC(=O)c1cc(Oc2ccc3nc(NC(=O)Nc4ccc(Cl)c(Cl)c4)sc3c2)ccn1	2430
CNC(=O)c1cc(Oc2ccc(NC(=O)Nc3ccc(Cl)c(C(F)(F)F)c3)cc2)ccn1 [SORAFENIB]	2510

----------
tgt: CYP2D6 (Homo sapiens)
Sequence (P10635 whole entry): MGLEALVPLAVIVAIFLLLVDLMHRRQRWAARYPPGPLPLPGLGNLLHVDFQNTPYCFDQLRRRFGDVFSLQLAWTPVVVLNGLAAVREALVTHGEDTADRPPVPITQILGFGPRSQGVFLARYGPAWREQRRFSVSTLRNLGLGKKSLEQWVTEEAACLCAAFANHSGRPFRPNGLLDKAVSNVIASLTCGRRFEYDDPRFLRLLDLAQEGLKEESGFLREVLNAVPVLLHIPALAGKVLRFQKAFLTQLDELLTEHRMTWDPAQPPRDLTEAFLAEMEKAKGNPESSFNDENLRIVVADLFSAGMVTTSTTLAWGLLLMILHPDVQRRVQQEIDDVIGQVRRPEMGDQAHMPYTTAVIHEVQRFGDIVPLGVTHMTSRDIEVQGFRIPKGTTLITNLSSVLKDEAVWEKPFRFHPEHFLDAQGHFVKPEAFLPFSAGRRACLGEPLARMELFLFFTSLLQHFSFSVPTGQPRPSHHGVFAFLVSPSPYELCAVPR
method.description: Inhibition of recombinant human CYP2D6 assessed as remaining enzyme activity using CYP2D6 blue as substrate at 10 uM after 5 mins in presence of NADP by fluorescence plate reader analysis
Type: ADME
protocol.conditions: recombinant human CYP2D6, probe CYP2D6 blue, read-out: Activity
endpoint: activity at 5 min, 10 µM (%)

smiles.entry	reported
CNC(=O)c1cc(Oc2ccc3nc(NC(=O)c4cc(C(F)(F)F)cc(C(F)(F)F)c4)sc3c2)ccn1	82.2
CNC(=O)c1cc(Oc2ccc3nc(NC(=O)Nc4ccc(Cl)c(Cl)c4)sc3c2)ccn1	96.4
CNC(=O)c1cc(Oc2ccc3nc(NC(=O)Nc4cc(C(F)(F)F)cc(C(F)(F)F)c4)sc3c2)ccn1	91.5
CNC(=O)c1cc(Oc2ccc3nc(NC(=O)Nc4ccc(Cl)c(C(F)(F)F)c4)sc3c2)ccn1	98.7

----------
method.description: Antiproliferative activity against human NCI-ADR-RES cells assessed as cell growth at 10^-7 M after 48 hrs by sulforhodamine B assay
Format: functional
protocol.conditions: read-out: Activity
Recorded measurements of growth at 0.1 µM, one per entry
endpoint: growth at 0.1 µM (%)

smiles.entry	endpoint	reported
CNC(=O)c1cc(Oc2ccc3nc(NC(=O)Nc4ccc(Cl)c(C(F)(F)F)c4)sc3c2)ccn1	growth at 0.1 µM	113
CNC(=O)c1cc(Oc2ccc3nc(NC(=O)c4cc(C(F)(F)F)cc(C(F)(F)F)c4)sc3c2)ccn1	growth at 0.1 µM	103
CNC(=O)c1cc(Oc2ccc3nc(NC(=O)Nc4cc(C(F)(F)F)cc(C(F)(F)F)c4)sc3c2)ccn1	growth at 0.1 µM	98
CNC(=O)c1cc(Oc2ccc3nc(NC(=O)Nc4ccc(Cl)c(Cl)c4)sc3c2)ccn1	growth at 0.1 µM	98

----------
Recorded measurements of activity at 5 min, 10 µM, one per entry
tgt: CYP3A4 (Homo sapiens, UniProt P08684)
Sequence (P08684 whole entry): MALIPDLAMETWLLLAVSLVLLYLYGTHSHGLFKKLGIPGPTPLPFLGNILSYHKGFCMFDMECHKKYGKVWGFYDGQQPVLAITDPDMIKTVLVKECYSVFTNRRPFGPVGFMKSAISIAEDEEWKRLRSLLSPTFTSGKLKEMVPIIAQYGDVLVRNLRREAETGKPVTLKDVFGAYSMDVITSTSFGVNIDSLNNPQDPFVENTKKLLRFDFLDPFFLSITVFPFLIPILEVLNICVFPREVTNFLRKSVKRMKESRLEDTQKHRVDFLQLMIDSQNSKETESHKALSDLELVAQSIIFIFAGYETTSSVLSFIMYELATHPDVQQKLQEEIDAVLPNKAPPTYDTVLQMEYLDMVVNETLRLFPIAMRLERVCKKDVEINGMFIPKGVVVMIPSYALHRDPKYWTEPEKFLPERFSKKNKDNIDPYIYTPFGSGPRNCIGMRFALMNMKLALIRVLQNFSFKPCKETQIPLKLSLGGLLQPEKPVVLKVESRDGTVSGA
method.description: Inhibition of recombinant human CYP3A4 assessed as remaining enzyme activity using CYP3A4 blue as substrate at 10 uM after 5 mins in presence of NADP by fluorescence plate reader analysis
Type: ADME
protocol.conditions: recombinant human CYP3A4, probe CYP3A4 blue, read-out: Activity

smiles.entry	activity at 5 min, 10 µM, %
CNC(=O)c1cc(Oc2ccc3nc(NC(=O)Nc4ccc(Cl)c(Cl)c4)sc3c2)ccn1	104
CNC(=O)c1cc(Oc2ccc3nc(NC(=O)c4cc(C(F)(F)F)cc(C(F)(F)F)c4)sc3c2)ccn1	72.9
CNC(=O)c1cc(Oc2ccc3nc(NC(=O)Nc4cc(C(F)(F)F)cc(C(F)(F)F)c4)sc3c2)ccn1	50.6
CNC(=O)c1cc(Oc2ccc3nc(NC(=O)Nc4ccc(Cl)c(C(F)(F)F)c4)sc3c2)ccn1	105

Reference source: ChEMBL document CHEMBL3797052
